Collected PBM binding z-score values appear next to each entry.
- Tested on: RARg:RXRa (NR concentration 270 nM, RXRa partner concentration 90 nM)
- experiment: PBM binding z-score (relative to random genomic background probes); higher = stronger binding; sequences stand for … in GC…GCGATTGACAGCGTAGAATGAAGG
Give the figure only, with no unit attached.

Prompt: Kindly indicate its recorded PBM binding z-score. Item: CGTCCAAGGTCAGCAGGTCAGAGAAAGCGACGTG
Completion: 6.59

====

- Test system: PPARg:RXRa 30nM:10nM, anti-RXR (NR concentration 30 nM, RXRa partner concentration 10 nM)
- experiment: PBM binding z-score (relative to random genomic background probes); higher = stronger binding; sequences stand for … in GC…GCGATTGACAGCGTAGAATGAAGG
So basically, the class depends on measured PBM binding z-score, and the ranges are lower level = under 2, middle level = from 2 up to 4, upper level = 4 and over

{"polymer_sequence": "CCTACTGGGCCACTCAGAGGTCATTGATCATATG", "class_name": "lower level"}

Prompt: Please classify: GATACAGGGTCAATGCCAGAGTACGCGTATTGAT
Completion: lower level

Prompt: Please classify: CCGTGTAGGTTACGAGGGGGCATTCAGTGCGAAT
Completion: lower level

Prompt: Please classify: CGAACTAGGTCATCGAGGACAGTGAATACATTGA
Completion: upper level

Prompt: Please classify: CCTGGCAGGCCAGGGTCACTCAAGCATTTCGCTT
Completion: lower level

Prompt: Please classify: AATACAGGATCACTAGGCCAGAGTAGGTACGAAT
Completion: lower level

Prompt: Please classify: GCTGCTAGGTCAGGTTGGTCTGCTAACGGGTACG
Completion: lower level

Prompt: Please classify: CCGACTGGGGCAAAGGTTACCATGCTCAGTACGA
Completion: upper level

Prompt: Please classify: GCTTACGGGTCAAAGGTTATGGCATGAATAGAAT
Completion: upper level

Prompt: Please classify: ATATGTAGGATATCGGGTCATTCAGTTTGCGCAT
Completion: lower level

Prompt: Please classify: CGTCAAAGTTCAAGCTAACGTAACAGAAAGCAGC
Completion: middle level

Prompt: Please classify: TCGAGTAGGTTACAGGGGCATTCAGGGATGAAGA
Completion: lower level

Prompt: Please classify: CTATGTAGGTTAAGGGGGTCATTCAATTTGAAAG
Completion: upper level

Prompt: Please classify: CGTCAAAGTTCAAGTTAACGTAACAGAAAGCAGC
Completion: middle level

Prompt: Please classify: ATCGAAAGGGCGTGAGGTGAGTATACAGAAAGGC
Completion: lower level

Prompt: Please classify: TCGAGTAGGTTACGGGGGCCTTCAGGGATGAAGA
Completion: lower level

Prompt: Please classify: TTTCCAAGGTGAAAGGTCGTTGATGCACGCCTTG
Completion: upper level

Prompt: Please classify: CTCGAAAGGTCGTGGTCAGGTGAGTATACCAAAC
Completion: lower level

====

- Test system: PPARg:RXRa 30nM:10nM, anti-RXR (NR concentration 30 nM, RXRa partner concentration 10 nM)
- experiment: PBM binding z-score (relative to random genomic background probes); higher = stronger binding; sequences stand for … in GC…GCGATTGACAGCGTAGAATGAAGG
reported_property: PBM binding z-score
Give the figure only, with no unit attached.

{"polymer_sequence": "TCGAGTAGGTTAGGGGGGCATTCAGGGATGAAGA", "measurement": 3.63}

Field: next sequence
Prompt: Please indicate recorded PBM binding z-score of CTATGTAGGTTAACGGGGTCATTCAGTTTGAAAG measured with PPARg:RXRa 30nM:10nM, anti-RXR (NR concentration 30 nM, RXRa partner concentration 10 nM).
Completion: 4.45

====

- Tested on: RARb homodimer (NR concentration 270 nM)
- experiment: PBM binding z-score (relative to random genomic background probes); higher = stronger binding; sequences stand for … in GC…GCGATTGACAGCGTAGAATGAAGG
So basically: PBM binding z-score at 2 or higher? That is Fulfilled. Lower than 2? That is Not fulfilled.

{"polymer_sequence": "CGAACTAGGTCAAACGACAGTGAAAGGCGACGTA", "class_name": "Fulfilled"}
{"polymer_sequence": "CCTACTGGGCGAAGGTCATTGATCAGTCAAAGCA", "class_name": "Fulfilled"}

Prompt: Quick check, PBM binding z-score >= 2? CAAACTAGGTCACCGTAAGGTCAAAGTCCGCATG
Completion: Fulfilled

Prompt: Quick check, PBM binding z-score >= 2? CGAACTAGGTGAAAGGACAGTGAAAGGCGACGTA
Completion: Not fulfilled

Prompt: Quick check, PBM binding z-score >= 2? GATTCAGGGTCAGCTAGAGGCCAGAGTATGGAAA
Completion: Fulfilled

Prompt: Quick check, PBM binding z-score >= 2? ATCGAAGGGTCGAAGGTGAGTATACCCACCCGAA
Completion: Not fulfilled

Prompt: Quick check, PBM binding z-score >= 2? ATATGAAGGTTATCGGGTCATTCAGTTTGCGCAT
Completion: Fulfilled

Prompt: Quick check, PBM binding z-score >= 2? TTACCAAGGTAAAAGGTCGTTGATGCACGCCTTG
Completion: Fulfilled

Prompt: Quick check, PBM binding z-score >= 2? CGTCCAAGGTCAGCAGGTCACTGAAAGCGACGTG
Completion: Fulfilled

Prompt: Quick check, PBM binding z-score >= 2? CCGACTGGGCCATTCAGAGGTCATTGATCATATG
Completion: Fulfilled

Prompt: Quick check, PBM binding z-score >= 2? CCGAGTAGCTTACGAGGGGGCATTCAGTGCGAAT
Completion: Not fulfilled

====

- Tested on: PPARg homodimer (NR concentration 180 nM)
- experiment: PBM binding z-score (relative to random genomic background probes); higher = stronger binding; sequences stand for … in GC…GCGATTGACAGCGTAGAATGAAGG
Collected PBM binding z-score values appear next to each entry.

{"polymer_sequence": "ATCGAAAGGTCGAGTTGAGTATAGAGAAAGGGAA", "PBM binding z-score": 1.65}

Prompt: Kindly indicate its recorded PBM binding z-score. Item: TCGAGTAGGTTACGGGAGCATTCAGGGATGAAGA
Completion: -0.122

Prompt: Kindly indicate its recorded PBM binding z-score. Item: CCTAGCAGGCCAGGTTCACTCAAGCATTTCGCTT
Completion: -0.179

====

- Test system: PPARg:RXRa (NR concentration 180 nM, RXRa partner concentration 90 nM)
- experiment: PBM binding z-score (relative to random genomic background probes); higher = stronger binding; sequences stand for … in GC…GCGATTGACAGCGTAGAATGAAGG
Collected PBM binding z-score values appear next to each entry.
Give the figure only, with no unit attached.

Completed entries (count: 4):
{"polymer_sequence": "ATCGAAAGGTCGAAGGAGAGTATACCCACCCGAA", "measurement": 2.15}
{"polymer_sequence": "GCTAGTGGGTCAGTAAAAGGTCACACACCGGTCG", "measurement": 6.44}
{"polymer_sequence": "ATATGTAAGTTAGGGTCATTCAGAAAGTAGGGAA", "measurement": 2.88}
{"polymer_sequence": "CGTCCAAGGTCAGTGAGGTCAGTGAATGCCGAGT", "measurement": 3.46}

Prompt: Please indicate recorded PBM binding z-score of TAGCCAAGGTCAGATCGGGCCAGTATACGCTATA measured with PPARg:RXRa (NR concentration 180 nM, RXRa partner concentration 90 nM).
Completion: 1.88

Prompt: Please indicate recorded PBM binding z-score of CATACAGGGACAGCTAGGCCAGAGTAGGGACGGC measured with PPARg:RXRa (NR concentration 180 nM, RXRa partner concentration 90 nM).
Completion: 0.544

====

- Tested on: LXRb homodimer (NR concentration 270 nM)
- experiment: PBM binding z-score (relative to random genomic background probes); higher = stronger binding; sequences stand for … in GC…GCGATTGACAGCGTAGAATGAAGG
So basically: PBM binding z-score at -0.2 or higher? That is yes. Lower than -0.2? That is no.

{"polymer_sequence": "TCATATAGGTAATCAGGTGAAAGTCCGTAAGTTA", "class_name": "yes"}
{"polymer_sequence": "TCTCGGAGGACACGAAGGTCAAAGCTTTCCAGAG", "class_name": "no"}
{"polymer_sequence": "CGAACTAAGTCATCCAGGACAGTGAATACATTGA", "class_name": "no"}
{"polymer_sequence": "AGAATGAGGTTACCAGAGATCAGGGAAACGCTTG", "class_name": "yes"}
{"polymer_sequence": "TAGCCTAGGTCAAGCGGGCCAGTATAGTGTCGGC", "class_name": "no"}
{"polymer_sequence": "ATATGTAGGTTACGTCCGGGTCATTCAGGCTATG", "class_name": "yes"}
{"polymer_sequence": "CGGACTGGGGCAAAGGTTACCATACTCAGTACGA", "class_name": "yes"}
{"polymer_sequence": "CGAACTAGGTCACCAGCACAGTGAAGAGGTTGGA", "class_name": "no"}

Prompt: Quick check, PBM binding z-score >= -0.2? ATCTCTAGGTTAAAGTTCAGTGAATCCCGAGGAT
Completion: yes

Prompt: Quick check, PBM binding z-score >= -0.2? CGTCCAAGGTAAGAGAGGTCAGTGAATGCCGAGT
Completion: no

Prompt: Quick check, PBM binding z-score >= -0.2? ACTCGGAGGACAAAGGTCACAGCTACGCCAGTGA
Completion: yes

Prompt: Quick check, PBM binding z-score >= -0.2? CAAACTAGGTCAAAGGTCAAAATCGAGCCAACCA
Completion: yes

Prompt: Quick check, PBM binding z-score >= -0.2? CGAACTAGGTCACCAGGACAGTAAAGAGGTTGGA
Completion: yes

Prompt: Quick check, PBM binding z-score >= -0.2? CGAACTAGGTCCAAGGACAGTGAAAGGCGACGTA
Completion: no

Prompt: Quick check, PBM binding z-score >= -0.2? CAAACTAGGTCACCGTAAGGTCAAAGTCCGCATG
Completion: yes

Prompt: Quick check, PBM binding z-score >= -0.2? ACTTACGGGTCAACGGGGTTATAGCACGCGTATA
Completion: yes
